Experiment: UV-Vis absorption and fluorescence spectroscopy of the Oxazine library
Type: physicochemical
Experimental: All reagents were purchased from Sigma Aldrich, Fisher Scientific, TCI, or Ark Pharm. Unless otherwise indicated, all commercially available starting materials were used directly without further purification. Analytical thin layer chromatography (TLC) was performed on Millipore ready-to-use plates with silica gel 60 (F254, 32-63 μm). […] Ions were detected in positive ion mode by setting the capillary voltage at 4 kV and gas temperature at 350° C. […] UV-Vis Absorption and Fluorescence Spectroscopy. […]
quantity measured: Max Abs

| sample smiles | quantity measured | reported result |
| --- | --- | --- |
| CCN1CCCc2cc3nc4ccc(=[N+](CC)CC)cc-4oc3cc21 | Max Abs | 656 nm |

Ask | Max Abs lookup needed for CCN1CCOc2cc3nc4ccc(=[N+](CC)CC)cc-4oc3cc21 , thanks.
Reply | 661 nm

Ask | Try the compound CC/N=c1/cc2oc3cc(NCC)c(Cl)cc3nc-2cc1C
Reply | 612 nm

Ask | Then this compound: CC[N+](CC)=c1ccc2nc3ccc(N4CCCCC4)cc3oc-2c1
Reply | 661 nm

Ask | Try this compound too: CC/N=c1/cc2oc3cc(N4CCCCC4)ccc3nc-2cc1C
Reply | 642 nm

Ask | Please do the same for CC/N=c1/cc2oc3c(C)c(NCC)ccc3nc-2cc1C as well.
Reply | 620 nm

====

experiment: UV-Vis absorption and fluorescence spectroscopy of the Oxazine library; type: physicochemical
quantity measured: Max Ex (nm)
Use nm as the unit, but write only the number.

Please review the following examples before continuing.
| compound | Max Ex / nm |
| --- | --- |
| CC/N=c1/cc2oc3cc4c(cc3nc-2cc1C)CCN4 [LGW05-85] | 615 |
| CC/N=c1/cc2oc3c(C)c(NCC)ccc3nc-2cc1C [LGW02-58] | 620 |
| CC/N=c1/cc2oc3cc(NCC)c(Cl)cc3nc-2cc1Cl [LGW05-39] | 620 |
| CCN1CCOc2cc3nc4ccc(=[N+](CC)CC)cc-4oc3cc21 [LGW05-65] | 665 |
| CC[N+](CC)=c1ccc2nc3cc4c(cc3oc-2c1)NCCO4 [LGW03-37] | 650 |

Ask | # query: Max Ex of entry CCNc1cc2oc3cc(=[N+](CC)CC)ccc-3nc2cc1Cl [LGW05-33]
Reply | 640

Ask | Let us now turn to CCNc1cc(C)c2nc3ccc(=[N+](CC)CC)cc-3oc2c1 [LGW02-61]
Reply | 635

Ask | Entry c1c2c(cc3c1N=c1cc4c(cc1O3)=NCC4)NCC2 [LGW07-55] please
Reply | 620

Ask | Ok, now CCN1CCCc2cc3c(cc21)Oc1cc2c(cc1=N3)CCC[N+]=2CC [LGW02-99]
Reply | 665

Ask | Same for CC[N+](CC)=c1ccc2nc3ccc(N4CCCCC4)cc3oc-2c1 [LGW03-18]
Reply | 665

====

assay: UV-Vis absorption and fluorescence spectroscopy of the Oxazine library; type: physicochemical; conditions: relative, references Oxazine 1, Oxazine 170, Rhodamine 101
Respond with true for Quantum yield values of 30% and above, false for values below.

| molecule | group |
| --- | --- |
| CC/N=c1/cc2oc3cc4c(cc3nc-2cc1C)CCN4CC [LGW05-76] | true |
| CC/N=c1/cc2oc3cc4c(cc3nc-2cc1C)CCN4 [LGW05-85] | true |
| CCNc1ccc2nc3ccc(=[N+](CC)CC)cc-3oc2c1 [LGW01-25] | false |

Ask | For this molecule, is measured Quantum yield 30% or higher? CC/N=c1/cc2oc3cc(N(C)C)ccc3nc-2cc1C [LGW04-36]
Reply | false

Ask | # iterate: c1cc2nc3ccc(=[N+]4CCCC4)cc-3oc2cc1N1CCCC1 [LGW03-31]
Reply | false

Ask | // next record CC[N+](CC)=c1ccc2nc3ccc(N4CCCCC4)cc3oc-2c1 [LGW03-18]
Reply | false

Ask | Likewise for CC/N=c1/cc2oc3cc(N4CCCCC4)ccc3nc-2cc1C [LGW03-21] ?
Reply | false

Ask | Lookup CC/N=c1/cc2oc3cc(N4CCCC4)ccc3nc-2cc1C [LGW03-06]
Reply | false

Ask | Next: CC/N=c1/cc2oc3cc(N)ccc3nc-2cc1C [LGW06-97]
Reply | false

Ask | What do we get for CCN1c2cc3c(cc2C(C)=CC1(C)C)N=c1cc2c(cc1O3)=[N+](CC)C(C)(C)C=C2C [LGW05-66] ?
Reply | true

Ask | Same lookup for c1c2c3c(c4c1N=c1cc5c6c(c1O4)CCC[N+]=6CCC5)CCCN3CCC2 [LGW02-87] , please.
Reply | false
